target_entity: benzodiazepine site on the GABAA receptor
test_name: [3H]flunitrazepam binding to rat cerebellum membranes
condition_set: read-out: IC50, inhibition of [3H]flunitrazepam binding
property_label: IC50 (nM)
Output spec: scalar in nM, unitless text.

Give the reported IC50 for this compound. CC(=O)N(C)c1cccc(-c2ccnc3c(C(=O)c4cccs4)cnn23)c1 [Compound 1] 2

---

Tested on: GABAA receptor
test_name: [35S]TBPS binding to rat cortex membranes
property_label: Emax, maximum enhancement of TBPS binding (%)
Provide only the numeric value, understood in %.

>>> readout_value("CCN(CC)CCN1C(=O)CN=C(c2ccccc2F)c2cc(Cl)ccc21 [flurazepam]")
71
>>> readout_value("Cc1nnc2n1-c1ccc(Cl)cc1C(c1ccccc1Cl)=NC2 [triazolam, reference compound]")
78

Query Emax, maximum enhancement of TBPS binding for CC(=O)N(C)c1cccc(-c2ccnc3c(C(=O)c4cccs4)cnn23)c1 [Compound 1] 65

Return value of Emax, maximum enhancement of TBPS binding for input CN1C(=O)CN=C(c2ccccc2)c2cc(Cl)ccc21 [diazepam] , no commentary. 55

Tell us which Emax, maximum enhancement of TBPS binding value is on record for CC(=O)Nc1cccc(-c2ccnc3c(C(=O)c4cccs4)cnn23)c1 [desmethyl metabolite of Compound 1] 28
